The reported numbers originate from ChEMBL document CHEMBL1129428.

Reported Dose values are given for each entry in this list.
Tested on: Mus musculus
ASSAY_NAME: Toxicity after intraperitoneal injection into mice by using toxicity screen test after 0.5 hr
Type: organism-based
RUN_CONDITIONS: in vivo, ip

Worked set:
NC(=O)N1c2ccccc2C=Cc2ccccc21 [CARBAMAZEPINE] : 100 mg/kg
CC(C)(C)c1ccc(Oc2ccc(/C=N\NC(N)=O)cc2)cc1 : 100 mg/kg
Cc1cc(Oc2ccc(/C=N/NC(N)=O)cc2)ccc1F : 300 mg/kg
CC/C(=N/NC(N)=O)c1ccc(Oc2ccc(Cl)cc2)cc1 : 300 mg/kg
N=C(N)N/N=C/c1ccc(Oc2ccc(F)cc2)cc1 : 100 mg/kg
Cc1cc(I)ccc1Oc1ccc(/C=N/NC(N)=O)cc1 : 300 mg/kg
NC(=O)N/N=C/c1ccc(Oc2ccc(F)cc2Br)cc1 : 300 mg/kg
C/C(=N/NC(N)=O)c1ccc(Oc2ccc(Cl)cc2)cc1 : 300 mg/kg

### Prompt Entry N=C(S)N/N=C/c1ccc(Oc2ccc(F)cc2)cc1 : reported Dose = ?
### Response 100 mg/kg

* * *

System: Mus musculus
ASSAY_NAME: Toxicity after intraperitoneal injection into mice by using toxicity screen test after 0.5 hr
Format: organism-based
RUN_CONDITIONS: in vivo, ip
Property: Dose; scope: individual compounds
Field: numeric (mg/kg). Do not append units.

NC(=O)N/N=C\c1ccc(Oc2cccc(F)c2)cc1 : 300

### Prompt What value of measured Dose is listed for O=C1NC(=O)C(c2ccccc2)(c2ccccc2)N1 ?
### Response 100

### Prompt Need Dose of CC/C(=N/NC(N)=O)c1ccc(Oc2ccc(F)cc2)cc1 , thanks.
### Response 300

### Prompt Find the recorded Dose belonging to NC(=O)N/N=C/c1ccc(Oc2ccc(Cl)cc2)cc1 and report it.
### Response 300

### Prompt Consider the compound NC(=O)N/N=C/c1ccc(Oc2ccc(I)cc2)cc1 and give its measured Dose.
### Response 300

### Prompt What does the record list as Dose for N=C(N)N/N=C/c1ccc(Sc2ccc(F)cc2)cc1 ?
### Response 100

* * *

ASSAY_NAME: Partition coefficient (logP)
Format: physicochemical
RUN_CONDITIONS: octanol/water
I'd appreciate it if you marked entries Fulfilled when logP is lower than 2 and Not fulfilled when it is not.

### Prompt Below 2 on logP? Entry NC(=O)N/N=C/c1ccc(Sc2ccc(F)cc2)cc1
### Response Not fulfilled

### Prompt Criterion: logP strictly below 2. Is it met by NC(=O)N/N=C/c1ccc(Oc2ccc(F)c(F)c2)cc1 ?
### Response Not fulfilled

* * *

ASSAY_NAME: Protection index = TD50/ED50 (MES)
Format: ADME, organism-based
RUN_CONDITIONS: rat, in vivo; read-out: PI
MEASURE: selectivity ratio

Cc1ccccc1Oc1ccc(/C=N/NC(N)=O)cc1 : > 88
CCCCOc1ccc(Oc2ccc(/C=N/NC(N)=O)cc2)cc1 : > 2.18
Cc1cccc(Oc2ccc(/C=N/NC(N)=O)cc2)c1 : > 163

### Prompt Look at this compound and give its reported selectivity ratio. CC(=O)N/N=C/c1ccc(Oc2ccc(F)cc2)cc1
### Response > 6.7

* * *

ASSAY_NAME: Protection index = TD50/ED50 (MES)
Assay type: ADME
RUN_CONDITIONS: read-out: TI
MEASURE: selectivity ratio
Give only the figure.

### Prompt # lookup: selectivity ratio of C/C(=N/NC(N)=O)c1ccc(Oc2ccc(F)cc2)cc1
### Response 32.3

* * *

Below, each entry is listed with its recorded Dose.
Test system: Mus musculus
ASSAY_NAME: Compound was tested for toxicity after intraperitoneal injection into mice by using toxicity screen test after 4 hr
Format: organism-based
RUN_CONDITIONS: in vivo, ip
Please state the number and follow it with the unit.

Sample answers from the record:
NC(=O)N/N=C/c1ccc(Sc2ccc(Br)cc2)cc1 : 300 mg/kg
NC(=O)N1c2ccccc2C=Cc2ccccc21 [CARBAMAZEPINE] : 300 mg/kg
CCc1ccc(Oc2ccc(/C=N/NC(N)=O)cc2)cc1 : 100 mg/kg
CC/C(=N/NC(N)=O)c1ccccc1Oc1ccc(Br)cc1 : 300 mg/kg
CCCCOc1ccc(Oc2ccc(/C=N/NC(N)=O)cc2)cc1 : 300 mg/kg
C/C(=N/NC(N)=O)c1ccc(Oc2ccc(F)cc2)cc1 : 100 mg/kg
Cc1ccc(C)c(Oc2ccc(/C=N/NC(N)=O)cc2)c1 : 300 mg/kg
NNC(=O)N/N=C/c1ccc(Oc2ccc(F)cc2)cc1 : 300 mg/kg
Cc1ccc(Oc2ccc(/C=N/NC(N)=O)cc2)cc1C : 300 mg/kg
N=C(S)N/N=C/c1ccc(Sc2ccc(F)cc2)cc1 : 100 mg/kg

### Prompt Item under review: NC(=O)N/N=C/c1ccc(Oc2ccc(F)cc2Cl)cc1 . Reported Dose?
### Response 300 mg/kg

### Prompt Data request, read-out Dose, for COc1ccc(Oc2ccc(/C=N/NC(N)=O)cc2)cc1
### Response 300 mg/kg

### Prompt Fill blank: measured Dose of the compound NC(=O)N/N=C/c1ccc(Oc2ccc(Cl)cc2F)cc1 is ____.
### Response 30 mg/kg

### Prompt Data request, read-out Dose, for C/C(=N/NC(N)=O)c1ccc(Oc2ccc(Cl)cc2)cc1
### Response 100 mg/kg

### Prompt # input compound: Cc1cc(Oc2ccc(/C=N/NC(N)=O)cc2)ccc1Cl ; wanted: its Dose
### Response 100 mg/kg

### Prompt Value lookup for Dose; key = N=C(N)N/N=C/c1ccc(Oc2ccc(F)cc2)cc1
### Response 100 mg/kg

* * *

Tested on: Mus musculus
ASSAY_NAME: Compound was tested for anticonvulsant activity after intraperitoneal injection into mice by using MES screen test after 1 hr
Type: functional
RUN_CONDITIONS: ip
# log10 of ED50 listing for each entry below
Recall that a logarithmic scale is used here: each number is log10 of ED50 in mg/kg.

Worked cases, answers included:
C/C(=N/NC(N)=O)c1ccc(Oc2ccc(C)cc2)cc1 : 0.75
NC(=O)N/N=C/c1ccc(Oc2ccc(F)cc2Cl)cc1 : 1.12
NC(=O)N/N=C/c1ccc(Sc2ccccc2)cc1 : 1.19
NC(=O)N/N=C/c1ccc(Sc2ccc(Cl)cc2)cc1 : 1.21
NC(=O)N/N=C\c1ccc(Oc2cccc(F)c2F)cc1 : 1.66
NC(=O)N/N=C/c1ccc(Sc2ccc(F)cc2)cc1 : 1.09

### Prompt What value of measured log10 of ED50 is listed for CCCc1ccc(Oc2ccc(/C=N/NC(N)=O)cc2)cc1 ?
### Response 1.04

### Prompt Returns the measured log10 of ED50 for the input compound. Input: Cc1ccc(Oc2ccc(/C=N/NC(N)=O)cc2)cc1
### Response 1.17

### Prompt Which log10 of ED50 is reported for this compound? CC/C(=N/NC(N)=O)c1ccc(Oc2ccc(F)cc2)cc1
### Response 0.74

### Prompt So what's the measured log10 of ED50 for this one? C/C(=N/NC(N)=O)c1ccc(Sc2ccc(Br)cc2)cc1
### Response 0.58

### Prompt Quick check: log10 of ED50 of NC(=O)N/N=C/c1ccc(Oc2ccc(F)cc2)cc1 ?
### Response 1.11

### Prompt Could you tell me which log10 of ED50 is on file for C/C(=N/NC(N)=O)c1ccc(Oc2ccc(F)cc2)cc1 ?
### Response 1.06

### Prompt # log10 of ED50 lookup, item NC(=O)N/N=C/c1ccc(Oc2ccc(F)c(F)c2)cc1
### Response 1.16

* * *

ASSAY_NAME: Protection index = TD50/ED50
Assay type: ADME
RUN_CONDITIONS: read-out: PI
Readings of selectivity ratio for the listed molecules
Form: value (number only, do not type unit).

As a guide, the following entries are already answered.
C/C(=N/NC(N)=O)c1ccc(Oc2ccc(Cl)cc2)cc1 : 2.23
C/C(=N/NC(N)=O)c1ccc(Oc2ccccc2)cc1 : 1.7
CCC(C)c1ccc(Oc2ccc(/C=N\NC(N)=O)cc2)cc1 (stereo not drawn) : 1.51
Cc1ccc(Oc2ccc(/C=N/NC(N)=O)cc2)cc1 : 2.3

### Prompt Tell me the measured selectivity ratio of C/C(=N/NC(N)=O)c1ccc(Oc2ccc(C)cc2)cc1 , please.
### Response 3.09

### Prompt If you can, please state the reported selectivity ratio value of CC/C(=N/NC(N)=O)c1ccc(Oc2ccc(F)cc2)cc1 .
### Response 2.75

### Prompt selectivity ratio for NC(=O)N/N=C/c1ccc(Oc2ccc(F)c(F)c2)cc1 ?
### Response 1.3

### Prompt Suppose we examine the molecule CCCc1ccc(Oc2ccc(/C=N/NC(N)=O)cc2)cc1 ; what selectivity ratio value has been reported?
### Response 3.05

* * *

Tested on: Rattus norvegicus
ASSAY_NAME: Compound was tested for anticonvulsant activity after Oral Administration into Rats by using MES screen test after 4h,dose 12.5 mg/kg; No activity was demonstarted
Assay type: functional, organism-based
Set-up: dose 12.5 mg/kg
MEASURE: Activity

Record excerpt, results attached:
N=C(N)N/N=C/c1ccc(Sc2ccc(F)cc2)cc1 : No activity
Cc1cc(C)cc(Oc2ccc(/C=N/NC(N)=O)cc2)c1 : No activity
CC/C(=N/NC(N)=O)c1ccccc1Oc1ccc(F)cc1 : No activity
NC(=O)N/N=C\c1ccc(OCc2ccccc2)cc1 : No activity

Moving on to another compound below.
### Prompt Any idea what its Activity is? The compound is Cc1ccc(C)c(Oc2ccc(/C=N/NC(N)=O)cc2)c1
### Response No activity
